Values were extracted from paper PMC5540273.

# System: EPHA5
# condition-context: concentration: 1 μM, replicates: in singlicate; n = 1;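 further: KINOMEscan kinase panel screen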
%Inh for assorted compounds
I only need the number, in %, no unit after it.

// solved cases for %Inh follow
{"cpd-smiles": "O=C(O)C(F)(F)F.O=C(O)C(F)(F)F.O=c1[nH]ccc2nc(N[C@@H]3CCCNC3)nc(Nc3ccc(S(=O)(=O)N4CCOCC4)cc3)c12", "%Inh, %": 32}
{"cpd-smiles": "Fc1ccc(-c2ncn(C3CCNCC3)c2-c2ccnc(Oc3ccc(-c4ccccc4)cc3)n2)cc1", "%Inh, %": 9}

Give the measured %Inh of "CN1CCN(CCCNc2nccc(-c3c(-c4ccc(F)cc4)nn4cc(C(F)(F)F)ccc34)n2)CC1" .
0

###

# Tested on: CLK2
# condition-context: concentration: 1 μM, replicates: in singlicate; n = 1
%Inh for assorted molecules
I only need the number, in %, no unit after it.

{"molecule": "COc1ccc(Nc2nccc(NCCNC(=O)c3cc4ccccc4s3)n2)cc1 [GSK1379896]", "%Inh, %": 0}
{"molecule": "Cc1cccc(Nc2nc(N[C@H]3CCNC3)ncc2C(N)=O)c1.Cl [GSK2197149]", "%Inh, %": 71}

# ---- query molecule ----
Give the measured %Inh of COc1cc(Nc2nccc(N3CCC(NC(=O)Nc4cccc(C(C)=O)c4)C3)n2)cc(OC)c1OC (centres unmarked) [GSK1379753] .
0

###

# System: OSR1
# Construct: gene OXSR1
# condition-context: concentration: 1 μM, replicates: in singlicate; n = 1
Decision: %Inh beneath 20% gives Criterion met; %Inh meeting or exceeding 20% gives Criterion not met.

Worked examples follow.
{"compound": "CCn1c(-c2nonc2N)nc2c(C#CC(C)(C)O)ncc(OCCCCN)c21.O=C(O)C(F)(F)F.O=C(O)C(F)(F)F", "class-assignment": "Criterion not met"}
{"compound": "Cn1cc(-c2[nH]c3cc(NC(=O)[C@H](N)C4CCCCC4)cc4c3c2C=NNC4=O)cn1", "class-assignment": "Criterion met"}
{"compound": "c1ccc(Oc2ccc(Nc3ccnc4cc(-c5ccc(CNCCN6CCOCC6)o5)ccc34)cc2)nc1", "class-assignment": "Criterion met"}
{"compound": "Oc1cc(Nc2ccnc3cc(I)ccc23)ccc1F", "class-assignment": "Criterion met"}
{"compound": "O=C(Nc1cccc(-c2nn3ccccc3c2-c2ccnc(Nc3cccc(C(F)(F)F)c3)n2)c1)c1c(F)cccc1F", "class-assignment": "Criterion met"}
{"compound": "NCCCC(NC(=O)c1cc(Br)c(-c2ccnc3[nH]ccc23)s1)c1ccccc1.O=C(O)C(F)(F)F.O=C(O)C(F)(F)F (centres unmarked)", "class-assignment": "Criterion not met"}
{"compound": "CN1CCN(Cc2cccc(-c3ccc4c(Nc5ccc(Oc6ccccc6)cc5)ccnc4c3)c2)CC1", "class-assignment": "Criterion met"}

Next up:
I'd appreciate it if you could check whether "Cl.NC(=O)c1cccc(Nc2nccc(Nc3ccc(Oc4c(Cl)cccc4Cl)c(Cl)c3)n2)c1" has %Inh smaller than 20%.
Criterion met

###

# Tested on: PKN1
# condition-context: concentration: 1 μM, replicates: in singlicate; n = 1
measured-attribute: %Inh
Enter the number, and then the unit.

// solved cases for %Inh follow
{"compound": "Cn1cc(-c2ccc3c(c2)CCN3C(=O)Cc2cccc(Cl)c2)c2c(N)ncnc21", "meas-value": "0%"}
{"compound": "CN(c1ccc(NC(=O)Nc2cc(C(F)(F)F)ccc2F)cc1)c1ccnc(Nc2ccc(S(N)(=O)=O)cc2)n1", "meas-value": "0%"}
{"compound": "Clc1ccc(-c2nn3ncccc3c2-c2ccnc(Nc3ccc4c(c3)OCCO4)n2)cc1", "meas-value": "0%"}
{"compound": "CN(C)Cc1ccc(-c2ccc3c(Nc4ccc(Oc5ccccn5)cc4)ccnc3c2)o1", "meas-value": "0%"}
{"compound": "O=c1[nH]cc(-c2ccc(N3CCOCC3)cc2)c2sc(-c3cn[nH]c3)cc12", "meas-value": "15%"}
{"compound": "FC(F)(F)c1ccc(/C=C/c2cncnc2Nc2ccc3[nH]c(Cc4ccccc4)nc3c2)cc1", "meas-value": "0%"}
{"compound": "Cn1cc(-c2[nH]c3cc(NC(=O)[C@H](N)C4CCCCC4)cc4c3c2C=NNC4=O)cn1", "meas-value": "88%"}
{"compound": "Cl.Cl.NCC(NC(=O)c1cc(-c2ccccc2)c(-c2ccnc3[nH]ccc23)s1)c1ccccc1 (stereo not drawn)", "meas-value": "25%"}
{"compound": "O=C(Nc1cccc(Oc2ccc3nc(NC(=O)C4CC4)cn3n2)c1)c1ccccc1C(F)(F)F", "meas-value": "0%"}
{"compound": "CC(C)(C)c1ccc2nccc(Nc3cccc(O)c3)c2c1", "meas-value": "0%"}

Entry "COc1cccc(C2=C(Nc3ccc(Cl)c(C(=O)O)c3)C(=O)NC2=O)c1" , system PKN1: what %Inh was measured?
0%

Next record, please: "O=C(Nc1ccccc1F)NC1CCN(c2ccnc(Nc3ccc(F)cc3)n2)CC1"
0%

Next record, please: O=C(NC1CCN(c2ccnc(Nc3ccc(F)cc3)n2)C1)c1cc2ccccc2s1 (stereo not drawn)
0%

###

# Tested on: DDR2
# condition-context: concentration: 1 μM, replicates: in singlicate; n = 1
measured-attribute: %Inh
Enter the number, and then the unit.

// solved cases for %Inh follow
{"cpd-smiles": "CCS(=O)(=O)c1ccc(OC)c(Nc2nccc(-c3c(-c4cccc(NC(=O)c5c(F)cccc5F)c4)nn4ncccc34)n2)c1", "meas-value": "8%"}
{"cpd-smiles": "C[C@@H]1CC[C@@H](C(=O)Nc2ccccc2)CN1c1cc(-c2ccc3c(N)n[nH]c3c2)nc(N)n1", "meas-value": "22%"}

Give the measured %Inh of "Cc1ccc(S(=O)(=O)Nc2ccc(Nc3nccc(Nc4cccc5[nH]ncc45)n3)cc2)cc1" .
36%

Next record, please: "Cl.c1ccc(-c2ccc3c(Nc4ccc5[nH]ncc5c4)ccnc3c2)nc1"
3%

###

# Test system: TYRO3
# condition-context: concentration: 1 μM, replicates: in singlicate; n = 1
Decision: %Inh beneath 9% gives Y; %Inh meeting or exceeding 9% gives N.

Worked examples follow.
{"compound": "Cc1cccc(Nc2nc(N[C@H]3CCNC3)ncc2C(N)=O)c1.Cl [GSK2197149]", "class-assignment": "Y"}
{"compound": "COc1cc(Nc2ncc3c(C)nc(-c4cc5ccccc5[nH]4)n3n2)cc(OC)c1OC [GW869516]", "class-assignment": "N"}
{"compound": "CN1CCN(Cc2cccc(-c3ccc4c(Nc5ccc(Oc6ccccc6)cc5)ccnc4c3)c2)CC1 [GW578342]", "class-assignment": "N"}
{"compound": "Cc1ccc(C)c(NC(=O)NC2CCN(c3ccnc(Nc4ccc(F)cc4)n3)C2)c1 (stereo not shown) [GSK1379720]", "class-assignment": "Y"}
{"compound": "Cl.c1ccc(-c2ccc3c(Nc4ccc5[nH]ncc5c4)ccnc3c2)nc1 [GW440137]", "class-assignment": "Y"}
{"compound": "Cc1ccc(F)c(C(=O)Nc2cccc(-c3nn4ccccc4c3-c3ccnc(Nc4cccc(F)c4)n3)c2)c1F [GSK361061]", "class-assignment": "N"}
{"compound": "COc1ccc(CNC(=O)NC2CCN(c3ccnc(Nc4ccc(F)cc4)n3)CC2)cc1 [GSK1379788]", "class-assignment": "Y"}
{"compound": "COc1cc2c(cc1OCCN1CCNCC1)ncc1c3ccc(C#N)cc3[nH]c21", "class-assignment": "Y"}
{"compound": "Nc1ncc(-c2cccnc2)c2scc(-c3ccc4c(c3)CCN4C(=O)Cc3ccccc3)c12 [GSK683281]", "class-assignment": "N"}
{"compound": "O=C(Nc1cccc(-c2nn3ccccc3c2-c2ccnc(Nc3cccc(F)c3)n2)c1)c1c(F)ccc(F)c1Cl [GSK357952]", "class-assignment": "N"}

I'd appreciate it if you could check whether CNC(=O)c1ccccc1Nc1nc(Nc2ccc(N3CCOCC3)cc2)ncc1Cl.Cl [GSK1576028] has %Inh smaller than 9%.
N

Next record, please: Oc1cc(Nc2ccnc3cc(I)ccc23)ccc1F [GW552771]
N

Next record, please: Cl.Cl.NCC(NC(=O)c1cc(-c2ccccc2)c(-c2ccnc3[nH]ccc23)s1)c1ccccc1 (stereo not shown) [GSK1321561]
Y

Next record, please: O=C(NC1CCN(c2ccnc(Nc3ccc(F)cc3)n2)C1)c1cc2ccccc2s1 (stereo not shown) [GSK1379716]
Y

Next record, please: NCCCC(NC(=O)c1cc(Br)c(-c2ccnc3[nH]ccc23)s1)c1ccccc1.O=C(O)C(F)(F)F.O=C(O)C(F)(F)F (stereo not shown) [GSK1287544]
Y

###

%Inh for assorted compounds
# Tested on: MAP4K3
# condition-context: concentration: 1 μM, replicates: in singlicate; n = 1
I only need the number, in %, no unit after it.

// solved cases for %Inh follow
{"compound": "c1ccc(-c2cnc3nccnn23)cc1", "unit-descriptor": "%", "%Inh": 0}
{"compound": "COc1cc(Nc2nccc(N3CCC(NC(=O)c4cc5ccccc5s4)C3)n2)cc(OC)c1OC (centres unmarked)", "unit-descriptor": "%", "%Inh": 8}
{"compound": "Cl.c1ccc(-c2ccc3c(Nc4ccc5[nH]ccc5c4)ccnc3c2)nc1", "unit-descriptor": "%", "%Inh": 0}
{"compound": "COc1cc(Nc2nccc(N3CCC(NC(=O)Nc4cccc(C(C)=O)c4)C3)n2)cc(OC)c1OC (centres unmarked)", "unit-descriptor": "%", "%Inh": 0}
{"compound": "c1ccc(-c2n[nH]cc2Nc2ccnc3ccccc23)nc1", "unit-descriptor": "%", "%Inh": 0}
{"compound": "c1ccc(Oc2ccc(Nc3ccnc4cc(-c5ccc(CNCCN6CCOCC6)o5)ccc34)cc2)nc1", "unit-descriptor": "%", "%Inh": 0}
{"compound": "Oc1cc(Nc2ccnc3cc(I)ccc23)ccc1F", "unit-descriptor": "%", "%Inh": 0}
{"compound": "CN(c1ccc(NC(=O)Nc2cc(C(F)(F)F)ccc2F)cc1)c1ccnc(Nc2ccc(S(N)(=O)=O)cc2)n1", "unit-descriptor": "%", "%Inh": 96.8}
{"compound": "Cc1ccc(S(=O)(=O)Nc2ccc(Nc3nccc(Nc4cccc5[nH]ncc45)n3)cc2)cc1", "unit-descriptor": "%", "%Inh": 34}
{"compound": "COc1ccc(Nc2nccc(N3CCC(NC(=O)Nc4cccc(OC)c4)C3)n2)cc1 (centres unmarked)", "unit-descriptor": "%", "%Inh": 5}

Give the measured %Inh of "COc1ccc(CNC(=O)NC2CCN(c3ccnc(Nc4ccc(F)cc4)n3)CC2)cc1" .
0

Next record, please: "CCCCc1nn2ncccc2c1-c1ccnc(Nc2ccc(N3CCN(C)CC3)cc2)n1"
12

Next record, please: "COc1cc(Nc2nccc(-c3c(-c4cccc(NC(=O)c5c(F)cccc5F)c4)nn4ccccc34)n2)cc(OC)c1OC"
71

Next record, please: "C[C@@H]1CC[C@@H](C(=O)Nc2ccccc2)CN1c1cc(-c2ccc3c(N)n[nH]c3c2)nc(N)n1"
0

Next record, please: "CN1CCN(CCCNc2nccc(-c3c(-c4ccc(F)cc4)nn4cc(C(F)(F)F)ccc34)n2)CC1"
30

Next record, please: "CC(=O)N1CCN(c2ccc(Nc3nccc(-c4sc(C(C)C)nc4-c4cccc(NS(=O)(=O)c5cccc(Cl)c5)c4)n3)cn2)CC1"
10
